# EXPERIMENTAL TARGET: T1, 4H454-AA
# T1 chain: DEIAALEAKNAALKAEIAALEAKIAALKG
# METHOD DESCRIPTION: two-hybrid library CCmax;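 further: natural log of median RNA to DNA barcode read ratio; higher means stronger binding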
# TEST SETTINGS: mean of both orientations

BINDER	interaction score
DKNAALKAEIAALEAKIAALKAENAALEG [4H3627-AA]	0.554
DEIAALEAEIAALKAKNAALKAEIAALKG [4H122-AA]	-0.403
DKIAALKAEIAALKAENAALEAEIAALKG [4H2642-AA]	0.982
DKNAALEAEIAALEAKIAALEAKNAALKG [4H3112-AA]	-0.722
DEIAALEAKIAALKAEIAALKAKNAALEG [4H335-AA]	0.512
DKIAALKAKIAALEAENAALEAKIAALEG [4H2837-AA]	-0.102
DEIAALEAKIAALEAKNAALKAKIAALEG [4H317-AA]	-1.04
DKNAALEAKIAALEAEIAALKAKNAALEG [4H3343-AA]	-0.866
DKNAALKAEIAALEAENAALEAKIAALKG [4H3606-AA]	1.23
DKIAALEAKIAALKAENAALKAEIAALEG [4H2393-AA]	-0.951
DEIAALEAKNAALEAKIAALKAKIAALEG [4H429-AA]	1.83
